Target: T1, hu-M-IL1RAP construct, positions S21-T367 (extracellular domain of the membrane form of human IL1RAP) (human, UniProt Q9NPH3 21-367)
T1 construct: Biotinylated when captured on the Biacore chip
T1 sequence: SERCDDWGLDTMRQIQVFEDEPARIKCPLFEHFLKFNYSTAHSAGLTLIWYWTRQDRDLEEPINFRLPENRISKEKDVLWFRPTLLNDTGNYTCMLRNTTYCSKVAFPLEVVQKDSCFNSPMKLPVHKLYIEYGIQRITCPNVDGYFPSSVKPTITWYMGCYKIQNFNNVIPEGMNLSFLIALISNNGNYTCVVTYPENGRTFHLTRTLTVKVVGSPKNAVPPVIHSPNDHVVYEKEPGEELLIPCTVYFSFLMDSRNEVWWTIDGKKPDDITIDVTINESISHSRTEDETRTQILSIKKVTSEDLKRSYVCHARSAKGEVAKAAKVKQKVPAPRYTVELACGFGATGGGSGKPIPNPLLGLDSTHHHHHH
Assay: SPR, Fab analyte, 37 C
pKd: −log10 of the molar value.
As shown below, each of these binders has a reported pKd value.

binder	pKd
H12 Fab (VH M34V) (Fab, V domains shown, Fab with 8xHis tag) VH: EVQLVESGGGLVQPGGSLRLSCAASGFTFSNYAVSWVRQAPGKGLEWVATVTEGGDYNYYLDDVKGRFTISRDNAKNSLYLQMNSLRAEDTAVYYCARDRWPYFFDYWGQGTLVTVSS VL: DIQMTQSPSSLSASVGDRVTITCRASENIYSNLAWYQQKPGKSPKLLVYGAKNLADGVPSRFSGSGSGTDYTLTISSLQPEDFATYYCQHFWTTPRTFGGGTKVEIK	9.52
H11 Fab (VH W97F) (Fab, V domains shown, Fab with 8xHis tag) VH: EVQLVESGGGLVQPGGSLRLSCAASGFTFSNYAMSWVRQAPGKGLEWVATVTEGGDYNYYLDDVKGRFTISRDNAKNSLYLQMNSLRAEDTAVYYCARDRFPYFFDYWGQGTLVTVSS VL: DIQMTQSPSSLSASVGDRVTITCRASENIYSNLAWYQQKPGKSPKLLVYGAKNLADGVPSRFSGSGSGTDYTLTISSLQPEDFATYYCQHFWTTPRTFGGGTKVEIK	9.34
